Below: molecules with IC50 recorded for Thyroid hormone receptor alpha (Homo sapiens) in separate published works.
Molecular target: Thyroid hormone receptor alpha (Homo sapiens)
Sequence (P10827 whole entry): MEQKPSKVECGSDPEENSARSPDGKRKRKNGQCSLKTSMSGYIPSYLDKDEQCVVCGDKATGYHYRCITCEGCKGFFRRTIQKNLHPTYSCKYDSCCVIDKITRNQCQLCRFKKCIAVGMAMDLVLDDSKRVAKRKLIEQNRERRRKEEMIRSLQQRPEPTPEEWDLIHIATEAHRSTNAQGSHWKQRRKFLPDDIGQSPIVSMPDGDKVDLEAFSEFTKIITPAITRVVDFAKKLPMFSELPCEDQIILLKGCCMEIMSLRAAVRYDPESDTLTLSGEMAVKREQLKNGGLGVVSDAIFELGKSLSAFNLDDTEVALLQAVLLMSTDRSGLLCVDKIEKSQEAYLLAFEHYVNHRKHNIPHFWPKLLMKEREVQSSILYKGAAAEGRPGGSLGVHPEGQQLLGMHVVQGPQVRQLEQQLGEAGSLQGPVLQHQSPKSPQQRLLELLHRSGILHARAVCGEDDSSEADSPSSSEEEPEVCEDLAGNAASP
Give the quantity in µM, number only.

# returns recorded IC50 (system: Thyroid hormone receptor alpha (Homo sapiens)) for Cc1oc2ccccc2c1Cc1cc(I)c(OCC(=O)O)c(I)c1 4.5

Fill in the recorded IC50 for this molecule, with Thyroid hormone receptor alpha (Homo sapiens) as test system: O=C(O)Cc1cc(Br)c(Oc2ccc(O)c(C(=O)NCCc3ccccn3)c2)c(Br)c1 1.15

IC50 of CCCCCCc1ccc(C(=O)CCN(C2CCCCC2)C2CCCCC2)cc1 on Thyroid hormone receptor alpha (Homo sapiens)? 16.5

###

The following compounds were reported with pIC50 values on the protein given by its sequence in different studies.
Target protein (sequence): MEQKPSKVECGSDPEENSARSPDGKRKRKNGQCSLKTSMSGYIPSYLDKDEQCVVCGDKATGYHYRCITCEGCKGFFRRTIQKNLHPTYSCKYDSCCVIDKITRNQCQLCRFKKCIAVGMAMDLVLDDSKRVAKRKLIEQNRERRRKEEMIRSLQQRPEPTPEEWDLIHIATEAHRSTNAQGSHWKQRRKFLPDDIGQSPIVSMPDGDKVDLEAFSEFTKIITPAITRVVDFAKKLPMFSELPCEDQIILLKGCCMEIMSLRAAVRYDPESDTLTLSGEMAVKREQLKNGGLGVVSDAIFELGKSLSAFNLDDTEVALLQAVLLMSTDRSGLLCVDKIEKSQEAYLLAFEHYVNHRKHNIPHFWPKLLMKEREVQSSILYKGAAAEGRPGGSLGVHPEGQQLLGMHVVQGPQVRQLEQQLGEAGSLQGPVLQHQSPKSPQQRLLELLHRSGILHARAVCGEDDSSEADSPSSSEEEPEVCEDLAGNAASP
The scale used: pIC50 is minus the common logarithm of the concentration in molar units.

Give the protein given by its sequence pIC50 for O=C(O)Cc1cc(Br)c(Oc2ccc(O)c(Oc3ccc(O)cc3)c2)c(Br)c1 6.62

Given the entry CC(C)c1cc(Oc2c(Br)cc(CC(=O)N[C@@H](C)C(=O)O)cc2Br)ccc1O , what pIC50 was observed with the protein given by its sequence? 8.00

Return pIC50 measured with the protein given by its sequence given this compound: O=C(O)CCc1cc(Br)c(OC2CCCCC2)c(Br)c1 6.34

What is its pIC50 for the protein given by its sequence? Entry: CCCC(C)C(=O)Nc1ccc(Oc2c(Cl)cc(CC(=O)O)cc2Cl)cc1Br (stereo not given) 5.89

What measured pIC50 is associated with CC(C)c1cc(Oc2c(Br)cc(CC(=O)N[C@H](C(=O)O)C(C)C)cc2Br)cc(F)c1O on the protein given by its sequence? 7.06
